Sourced from ChEMBL document CHEMBL4387742

Each entry below carries its recorded pIC50.
target: UniProt P05067; experiment: Inhibition of human amyloid beta (1 to 40) assessed as reduction in aggregation measured after 24 hrs by ThT fluorescence assay
Sequence (P05067 whole entry): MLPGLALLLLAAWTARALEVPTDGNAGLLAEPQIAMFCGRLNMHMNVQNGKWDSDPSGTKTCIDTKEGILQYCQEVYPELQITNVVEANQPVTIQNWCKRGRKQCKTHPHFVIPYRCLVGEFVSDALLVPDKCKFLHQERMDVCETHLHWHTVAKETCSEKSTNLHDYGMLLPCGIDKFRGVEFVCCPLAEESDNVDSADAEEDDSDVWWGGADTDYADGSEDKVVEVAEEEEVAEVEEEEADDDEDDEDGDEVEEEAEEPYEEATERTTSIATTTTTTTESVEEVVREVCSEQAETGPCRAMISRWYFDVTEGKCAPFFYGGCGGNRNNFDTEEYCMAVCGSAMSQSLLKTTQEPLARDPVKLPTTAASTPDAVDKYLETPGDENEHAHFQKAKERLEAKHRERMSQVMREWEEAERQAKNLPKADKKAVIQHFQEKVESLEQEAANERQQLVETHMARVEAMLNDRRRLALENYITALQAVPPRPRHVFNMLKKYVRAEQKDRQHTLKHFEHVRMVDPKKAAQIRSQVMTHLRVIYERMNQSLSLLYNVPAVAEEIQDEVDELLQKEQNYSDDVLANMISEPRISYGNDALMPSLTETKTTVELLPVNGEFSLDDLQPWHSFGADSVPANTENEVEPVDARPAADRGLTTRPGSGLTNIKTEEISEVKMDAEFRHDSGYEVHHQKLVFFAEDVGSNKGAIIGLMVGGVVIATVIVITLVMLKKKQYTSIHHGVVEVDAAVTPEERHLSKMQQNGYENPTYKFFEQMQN
Scale explanation: pIC50 corresponds to minus log10 of a concentration expressed in moles per litre.

Recorded pIC50, per entry:
COc1ccc(-c2cc(=O)c3c(O)cc(O)c(-c4c(OC)cc5oc(-c6ccc(O)cc6)cc(=O)c5c4O)c3o2)cc1	4.80
COc1ccc(-c2cc(=O)c3c(O)cc(OC)c(-c4c(OC)cc(O)c5c(=O)cc(-c6ccc(O)cc6)oc45)c3o2)cc1	4.34

GET /values?readout=pIC50&item= COc1ccc(-c2cc(=O)c3c(O)cc(O)c(-c4cc(-c5cc(=O)c6c(O)cc(O)cc6o5)ccc4OC)c3o2)cc1
5.00
